Hi there, I'd appreciate the recorded IC50 for every entry that follows.
tested on: N-type calcium channel (NTCC) (Homo sapiens, UniProt Q00975)
Sequence (Q00975 whole entry): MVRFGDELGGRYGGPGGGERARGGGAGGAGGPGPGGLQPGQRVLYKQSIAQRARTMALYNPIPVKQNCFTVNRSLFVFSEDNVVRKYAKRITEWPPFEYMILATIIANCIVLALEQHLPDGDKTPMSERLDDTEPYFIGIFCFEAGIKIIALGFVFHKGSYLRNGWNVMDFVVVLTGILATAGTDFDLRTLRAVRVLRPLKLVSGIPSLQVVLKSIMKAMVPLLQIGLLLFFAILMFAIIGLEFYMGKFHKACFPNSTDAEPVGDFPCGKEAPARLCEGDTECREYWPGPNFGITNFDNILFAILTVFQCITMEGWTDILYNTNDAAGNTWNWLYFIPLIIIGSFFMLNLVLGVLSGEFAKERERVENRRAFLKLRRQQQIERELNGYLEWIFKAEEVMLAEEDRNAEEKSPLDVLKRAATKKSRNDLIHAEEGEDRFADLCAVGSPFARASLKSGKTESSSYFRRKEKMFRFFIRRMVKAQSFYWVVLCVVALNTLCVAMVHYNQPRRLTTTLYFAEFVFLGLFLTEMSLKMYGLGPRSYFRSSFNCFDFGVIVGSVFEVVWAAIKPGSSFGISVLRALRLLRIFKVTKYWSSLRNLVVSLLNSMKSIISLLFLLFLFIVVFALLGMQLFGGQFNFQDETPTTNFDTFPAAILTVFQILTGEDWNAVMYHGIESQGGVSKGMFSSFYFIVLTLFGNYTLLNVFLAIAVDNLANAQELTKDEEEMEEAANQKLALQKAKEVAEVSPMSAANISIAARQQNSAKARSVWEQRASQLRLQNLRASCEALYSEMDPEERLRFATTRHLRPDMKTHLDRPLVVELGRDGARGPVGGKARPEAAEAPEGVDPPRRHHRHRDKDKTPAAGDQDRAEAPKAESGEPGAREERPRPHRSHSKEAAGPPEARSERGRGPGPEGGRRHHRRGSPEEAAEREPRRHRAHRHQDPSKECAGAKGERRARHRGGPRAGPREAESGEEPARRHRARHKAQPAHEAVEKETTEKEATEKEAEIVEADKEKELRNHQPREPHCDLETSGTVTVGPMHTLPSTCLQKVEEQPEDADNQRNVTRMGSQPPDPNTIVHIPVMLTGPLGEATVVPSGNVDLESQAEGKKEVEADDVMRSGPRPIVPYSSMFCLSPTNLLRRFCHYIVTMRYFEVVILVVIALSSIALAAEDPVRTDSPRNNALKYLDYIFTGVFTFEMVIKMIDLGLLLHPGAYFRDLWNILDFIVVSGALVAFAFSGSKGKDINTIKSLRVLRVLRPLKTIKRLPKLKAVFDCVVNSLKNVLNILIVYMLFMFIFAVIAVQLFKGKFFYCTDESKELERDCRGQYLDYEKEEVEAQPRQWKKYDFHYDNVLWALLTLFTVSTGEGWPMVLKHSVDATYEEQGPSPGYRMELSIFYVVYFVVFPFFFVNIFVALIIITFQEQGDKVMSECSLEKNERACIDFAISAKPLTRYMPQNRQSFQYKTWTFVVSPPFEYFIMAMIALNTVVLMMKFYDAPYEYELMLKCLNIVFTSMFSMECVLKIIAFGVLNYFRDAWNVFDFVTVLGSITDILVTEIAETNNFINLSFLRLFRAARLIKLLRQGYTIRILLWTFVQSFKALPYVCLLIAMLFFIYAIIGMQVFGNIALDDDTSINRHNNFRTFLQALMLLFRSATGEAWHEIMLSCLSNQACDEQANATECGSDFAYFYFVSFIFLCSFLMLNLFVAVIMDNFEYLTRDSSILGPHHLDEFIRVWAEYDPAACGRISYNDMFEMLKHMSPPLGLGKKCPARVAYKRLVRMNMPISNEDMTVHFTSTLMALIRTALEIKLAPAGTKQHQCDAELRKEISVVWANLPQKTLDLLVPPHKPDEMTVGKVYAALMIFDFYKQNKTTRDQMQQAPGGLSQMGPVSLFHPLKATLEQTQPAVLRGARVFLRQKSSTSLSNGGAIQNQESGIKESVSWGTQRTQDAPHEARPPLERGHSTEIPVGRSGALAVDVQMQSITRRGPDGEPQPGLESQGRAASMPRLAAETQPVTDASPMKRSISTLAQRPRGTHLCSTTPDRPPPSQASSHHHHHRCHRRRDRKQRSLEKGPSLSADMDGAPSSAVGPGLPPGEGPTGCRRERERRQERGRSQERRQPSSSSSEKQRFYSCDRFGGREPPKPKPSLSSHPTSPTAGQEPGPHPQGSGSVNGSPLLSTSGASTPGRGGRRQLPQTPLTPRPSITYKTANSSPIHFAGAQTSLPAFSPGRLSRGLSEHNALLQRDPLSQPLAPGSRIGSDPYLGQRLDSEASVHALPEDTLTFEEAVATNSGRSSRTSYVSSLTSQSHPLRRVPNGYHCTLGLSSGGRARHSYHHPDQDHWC
Sequence (P54289 25-956 partner limits assumed): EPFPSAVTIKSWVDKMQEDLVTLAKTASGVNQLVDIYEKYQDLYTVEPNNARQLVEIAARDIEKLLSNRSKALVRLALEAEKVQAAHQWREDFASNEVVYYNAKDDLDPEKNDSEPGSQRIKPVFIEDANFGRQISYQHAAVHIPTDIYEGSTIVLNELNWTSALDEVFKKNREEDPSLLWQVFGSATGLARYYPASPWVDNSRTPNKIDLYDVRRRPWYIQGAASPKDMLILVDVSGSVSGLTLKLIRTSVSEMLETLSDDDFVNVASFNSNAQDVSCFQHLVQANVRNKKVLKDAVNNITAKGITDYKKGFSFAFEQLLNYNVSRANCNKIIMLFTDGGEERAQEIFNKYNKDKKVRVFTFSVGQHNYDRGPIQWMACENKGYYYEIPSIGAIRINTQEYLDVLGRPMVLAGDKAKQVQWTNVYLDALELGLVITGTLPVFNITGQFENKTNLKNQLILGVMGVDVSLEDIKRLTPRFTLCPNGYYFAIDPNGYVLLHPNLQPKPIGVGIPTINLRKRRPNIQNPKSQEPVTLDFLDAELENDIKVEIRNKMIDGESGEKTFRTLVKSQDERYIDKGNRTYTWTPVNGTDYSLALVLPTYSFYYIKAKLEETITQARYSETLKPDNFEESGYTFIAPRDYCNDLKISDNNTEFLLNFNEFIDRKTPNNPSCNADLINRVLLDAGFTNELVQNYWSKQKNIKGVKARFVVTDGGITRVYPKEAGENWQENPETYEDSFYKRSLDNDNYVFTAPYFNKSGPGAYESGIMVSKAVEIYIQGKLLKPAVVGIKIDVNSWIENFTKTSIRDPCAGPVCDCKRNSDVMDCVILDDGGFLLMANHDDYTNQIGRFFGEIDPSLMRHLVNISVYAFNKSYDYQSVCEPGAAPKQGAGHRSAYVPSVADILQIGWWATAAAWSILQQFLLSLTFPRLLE
Sequence (P54289 957-1103 partner limits assumed): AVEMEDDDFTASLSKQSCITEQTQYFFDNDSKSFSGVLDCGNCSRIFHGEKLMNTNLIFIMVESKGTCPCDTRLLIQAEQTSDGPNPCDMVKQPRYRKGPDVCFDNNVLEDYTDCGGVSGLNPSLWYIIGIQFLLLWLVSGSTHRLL
Sequence (P54284 whole entry partner): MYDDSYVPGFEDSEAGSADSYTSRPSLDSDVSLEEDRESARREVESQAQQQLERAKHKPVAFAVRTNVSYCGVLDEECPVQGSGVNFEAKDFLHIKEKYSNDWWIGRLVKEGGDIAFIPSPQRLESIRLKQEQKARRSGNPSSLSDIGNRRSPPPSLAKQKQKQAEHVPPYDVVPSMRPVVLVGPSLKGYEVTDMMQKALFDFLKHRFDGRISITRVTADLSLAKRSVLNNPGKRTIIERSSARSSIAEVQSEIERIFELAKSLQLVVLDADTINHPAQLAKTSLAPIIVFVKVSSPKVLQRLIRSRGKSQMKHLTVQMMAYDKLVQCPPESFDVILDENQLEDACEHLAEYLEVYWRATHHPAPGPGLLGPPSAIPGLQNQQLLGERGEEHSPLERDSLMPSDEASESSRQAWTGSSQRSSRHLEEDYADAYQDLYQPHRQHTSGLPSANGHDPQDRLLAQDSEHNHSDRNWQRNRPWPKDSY
test description: FLIPR calcium mobilization assay for N-type calcium channel
experimental setup: calcium mobilization in vitro assay; differentiated IMR32 cells, 5 μM nitrendipine, 90 mM KCl
Excerpt: Cell maintenance and differentiation. Unless noted otherwise, cell culture reagents were purchased from Mediatech of Herndon, Md. […] FLIPR Calcium Mobilization Assay for N-type Calcium Channel. […] Plates were then transferred to a Fluorimetric Imaging Plate Reader (FLIPR^96, Molecular Devices, Inc., Sunnyvale, Calif.) for assay. […]
Entry rule: numbers only, all in nM.

Q. # return IC50 for O=S(=O)(c1ccc(OC(F)(F)F)cc1)N1CCC(ON=C(c2ccc(F)cc2)c2ccc(F)cc2)CC1 , test system: N-type calcium channel (NTCC) (Homo sapiens, UniProt Q00975)
A. 100

Q. # return IC50 for C/C(=N\OC1CCN(S(=O)(=O)c2ccc(OC(F)(F)F)cc2)CC1)c1cccc(C#N)c1 , test system: N-type calcium channel (NTCC) (Homo sapiens, UniProt Q00975)
A. 180

Q. # return IC50 for N#Cc1cccc(C(=NOC2CCN(S(=O)(=O)c3ccc(OC(F)(F)F)cc3)CC2)C2CC2)c1 (racemic) , test system: N-type calcium channel (NTCC) (Homo sapiens, UniProt Q00975)
A. 200
